# assay.system: Glucocerebrosidase (Homo sapiens (Human))
# Sequence (P04062 40-536): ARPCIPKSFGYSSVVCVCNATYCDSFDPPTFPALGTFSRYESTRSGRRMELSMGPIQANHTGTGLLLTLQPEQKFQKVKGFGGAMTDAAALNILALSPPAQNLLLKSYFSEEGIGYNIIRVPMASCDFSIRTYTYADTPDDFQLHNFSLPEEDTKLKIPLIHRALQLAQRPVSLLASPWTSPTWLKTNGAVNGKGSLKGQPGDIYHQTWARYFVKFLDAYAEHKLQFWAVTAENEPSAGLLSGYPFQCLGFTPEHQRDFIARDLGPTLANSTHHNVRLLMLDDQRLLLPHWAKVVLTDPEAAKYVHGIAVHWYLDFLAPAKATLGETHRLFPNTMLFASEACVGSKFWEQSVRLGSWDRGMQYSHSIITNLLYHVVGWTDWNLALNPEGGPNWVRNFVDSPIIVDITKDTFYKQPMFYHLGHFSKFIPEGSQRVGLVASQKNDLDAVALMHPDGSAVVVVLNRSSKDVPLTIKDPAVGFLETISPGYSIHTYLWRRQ
# assay.text: Glucocerebrosidase activity assay with blue substrate (4MU-Glc)
# Assay type: biochemical
# protocol.conditions: cells marked (act); read-out: IC50 or AC50 (μM): AC50 (act)
measurement.label: AC50 (µM)

a: CN(Cc1ccc2nsnc2c1)c1nc(-c2cccnc2)nc2ccccc12 [compound 21]
b: CN(Cc1cnc2ccccc2n1)c1nc(-c2cccnc2)nc2ccccc12 [compound 10]
Asked: Kindly identify the item with the lower AC50 figure among these two: a and b Select an item and report its label.
Given back: b
(b: 0.89 µM, a: 3.55 µM)

a: CC(C)(C)OC(=O)N1CCN(c2nc(-c3cccnc3)nc3ccccc23)CC1 [compound 22]
b: CCN(CC1COc2ccccc2O1)c1nc(-c2cccnc2)nc2ccccc12 (centres unmarked) [compound 28]
c: CC(C)Cc1noc(CN(C)c2nc(-c3cccnc3)nc3ccccc23)n1 [compound 25]
d: CN(CCc1cccc(F)c1)c1nc(-c2cccnc2)nc2ccccc12 [compound 59]
Asked: Give the ascending ranking of the items by reported AC50. Answer by listing the labels in the requested order.
Given back: b, d, a, c
(b: 2.82 µM, d: 4.47 µM, a: 10 µM, c: 35.5 µM)

1: Nc1ccc(CCNc2nc(-c3cccnc3)nc3ccccc23)cc1 [compound 71]
2: CN(Cc1cccnc1)c1nc(-c2cccnc2)nc2ccccc12 [compound 7]
Asked: Compare 1 and 2 by numeric AC50 and name the larger one. Indicate which entry you chose by stating its label.
Given back: 2
(2: 12.6 µM, 1: 2 µM)
